Test system: SN12C renal
method-notes: NCI-60 one-dose screen, 48 h
experimental-conditions: 10 µM unless noted
About 83,000 compounds went through this panel and 20% of them were active in at least one assay; those are over-represented in the sample as a whole. Calls of active or inactive are those of the source. The calls were made as follows: active = growth percent below 10; inactive = the rest.
Classes used: YES (active), NO (inactive)

{"compound": "COc1c(B(O)O)cccc1-c1nc2ccc3[nH]ncc3c2c2c1CCC2", "assigned-category": "NO"}
{"compound": "Cn1cc(-c2nnc(-c3cn(C)c4ncccc34)o2)c2ccccc21", "assigned-category": "NO"}
{"compound": "CC[C@@H]1NC(=O)[C@@H]2CCCCN2C(=O)[C@@H]2CCCN2C(=O)[C@@H](NC(=O)[C@H](Cc2cc(F)cc(F)c2)NC(=O)Nc2ccc(C3CC3)cc2F)[C@H](C)OC(=O)[C@@H]2C[C@@H](C)CN2C1=O", "assigned-category": "NO"}
{"compound": "[2H]C1([2H])CCN(C(=O)C2CC2)c2cc(NS(=O)(=O)c3ccc(-c4cccc(C(N)=O)c4)cc3)ccc21", "assigned-category": "NO"}
{"compound": "C=C(C)[C@@H]1CC[C@]2(C(=O)NCCNCCNCCN)CC[C@]3(C)[C@H](CC[C@@H]4[C@@]5(C)CC[C@H](O)C(C)(C)[C@@H]5CC[C@]43C)[C@@H]12", "assigned-category": "YES"}
{"compound": "CCOC(=O)c1nn(C2CCCCO2)c2ccc(NC(=O)CN3CCOCC3)cc12 (centres undefined)", "assigned-category": "NO"}
{"compound": "CC[C@]12C=CCN3CC[C@@]4(c5ccc(OC)cc5N(C)[C@H]4[C@@](O)(C(=O)OC)[C@@H]1OC(=O)CCC(=O)N[C@H](Cc1c[nH]c4ccccc14)C(=O)OC)[C@@H]32", "assigned-category": "YES"}
{"compound": "O=C(NCc1ccc(Cn2c(=O)sn(-c3ccccc3)c2=O)cc1)OCc1ccc2c(Br)cc(Br)c(O)c2n1", "assigned-category": "YES"}
{"compound": "Cc1cccc(/C=C2\\N=C(c3ccccc3)N(c3ccc(S(N)(=O)=O)cc3)C2=O)c1", "assigned-category": "NO"}
